- tested-on: human CB1R (hCB1R) (Homo sapiens, UniProt P21554)
- Construct: purchased Charles River A317
- Sequence (P21554 whole entry): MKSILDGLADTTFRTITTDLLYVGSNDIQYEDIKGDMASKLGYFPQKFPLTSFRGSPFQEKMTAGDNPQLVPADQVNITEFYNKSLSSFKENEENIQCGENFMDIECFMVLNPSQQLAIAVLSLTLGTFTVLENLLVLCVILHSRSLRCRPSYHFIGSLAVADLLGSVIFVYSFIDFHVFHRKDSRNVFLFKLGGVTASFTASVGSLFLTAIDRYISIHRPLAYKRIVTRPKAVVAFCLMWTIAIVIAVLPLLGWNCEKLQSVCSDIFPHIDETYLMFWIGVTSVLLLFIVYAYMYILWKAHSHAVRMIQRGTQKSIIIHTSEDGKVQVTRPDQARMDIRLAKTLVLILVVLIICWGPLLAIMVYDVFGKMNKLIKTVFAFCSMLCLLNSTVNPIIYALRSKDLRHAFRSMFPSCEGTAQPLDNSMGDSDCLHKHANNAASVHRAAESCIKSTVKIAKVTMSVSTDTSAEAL
- measurement-notes: [3H]CP-55,940 competition displacement binding assay, hCB1R membranes
- cond: read-out: Ki (nM) hCB1R
readout-type: Ki

[[record]]
compound = "CCCCCc1cc(O)c(C2(O)C3(C)CCC(C3)C2(C)C)c(OC)c1 (stereo not drawn)"
tested_on = "human CB1R (hCB1R) (Homo sapiens, UniProt P21554)"
observed_value = "> 10000 nM"

[[record]]
compound = "CCCCCCC(C)(C)c1cc(OC)c(C2(O)C3(C)CCC(C3)C2(C)C)c(OC)c1 (stereo not drawn)"
tested_on = "human CB1R (hCB1R) (Homo sapiens, UniProt P21554)"
observed_value = "> 10000 nM"

[[record]]
compound = "CCCCCCC(C)(C)c1cc(OC)c(C2(O)C3(C)CCC(C3)C2(C)C)c(OC)c1F (stereo not drawn)"
tested_on = "human CB1R (hCB1R) (Homo sapiens, UniProt P21554)"
observed_value = "> 10000 nM"

